System: K-562 leukemia
assay: NCI tumour cell line growth inhibition, 48 h; in the data active means GI50 below about 0.43 µM; inactive means the rest
Assign a class; possible classes are Y for active, N for inactive

Solved entries:
{"columns": ["compound", "tested_system", "qualitative_label"],
 "data": [
  ["COC(=O)Cc1ccc(Oc2cnc3cc(F)c(F)cc3n2)cc1", "K-562 leukemia", "N"],
  ["COc1cc(CNc2ccccc2C(=O)N2CCN(C(=O)c3cc(-c4cc(OC)c(OC)c(OC)c4)n4nc(-c5ccccc5)cc4n3)CC2)cc(OC)c1OC", "K-562 leukemia", "N"],
  ["COc1cccc(NC(=O)c2sc3nc4c(cc3c2N)C(=O)CCC4)c1", "K-562 leukemia", "Y"],
  ["Cc1cn2c(/C=N/N=C(N)N)c(-c3cccs3)nc2s1", "K-562 leukemia", "N"],
  ["CCCC(CCC)C(=O)OCC1(CO)C/C(=C\\c2ccc(F)cc2)C(=O)O1 (centres undefined)", "K-562 leukemia", "Y"]
]}

query: // outcome(item) with item = C=C1CCC2C(C)(COC(=O)CC)C(OC(=O)CC)CCC2(C)C1C/C=C1/C(=O)OCC1OC(=O)CC (centres undefined)
result: N

query: Dear colleague, could you share the recorded outcome for `CN1C(=O)N[C@H]2[C@@H]3NC(=O)c4ccc(Br)n4[C@@H]3C[C@]21O` when you have a moment?
result: Y

query: Hi, do you know how CCOC(=O)CC1C(COC(=O)NC)OC(n2cnc3c(NC(=O)Nc4ccccc4)ncnc32)C1O[Si](C)(C)C(C)(C)C (centres undefined) came out in this test?
result: N

query: Hi, sorry to bother you, what did the test record for `NC(=O)c1cccc(Nc2nccc(Nc3cccc4[nH]ncc34)n2)c1` ?
result: N

---

Entries and their measured TGI follow.
Test system: A498 renal
assay: NCI tumour cell line growth inhibition, 48 h
Provide only the numeric value, understood in µM.

Answered examples (5):
{"columns": ["compound", "units_label", "endpoint_result"],
 "data": [
  ["CN(Cc1cc(Cl)cc(Cl)c1)CC(C(=O)c1ccccc1)c1ccccc1 (stereo not given)", "µM", 64.8],
  ["O=C1Nc2ccc(Cl)cc2/C1=C\\c1c(Cl)nc2sccn12", "µM", 8.66],
  ["COc1ccc(/C=N\\Nc2ccc([N+](=O)[O-])cn2)cc1OC", "µM", 59.6],
  ["O=C1C=CC(=O)c2cc(Sc3ccccc3)c(=O)ccc21", "µM", 31.4],
  ["C=C(OC1C(C)=C2C(C1OC(=O)CCCCCCC)C(C)(OC(C)=O)CC(OC(=O)CCC)C1(O)C2OC(=O)C1(C)O)/C(C)=C/C (stereo not given)", "µM", 3.29]
]}

Let us move to another entry and its TGI.
query: Look up and report measured TGI for this entry: `Cc1c2c(OCCN3CCCCC3)nn(C)c(=O)c2c(C)n1-c1ccccc1`
result: 36.9

---

# TGI listing for each entry below
Tested on: NCI-H522 lung
assay: NCI tumour cell line growth inhibition, 48 h
Give just the numeric value; µM need not be written.

{"columns": ["compound", "tested_system", "units_label", "TGI"],
 "data": [
  ["CC(=O)On1c(-c2ccccc2-c2nc3ccccc3n2OC(C)=O)nc2ccccc21", "NCI-H522 lung", "µM", 51.5],
  ["OCC(O)c1nc2ccc3[nH]ncc3c2c2c1CCCC2 (stereo unspecified)", "NCI-H522 lung", "µM", 9.87],
  ["CN(CCNCc1cn(C)c2c1ccc1ccccc12)CCNCc1cn(C)c2c1ccc1ccccc12", "NCI-H522 lung", "µM", 2.86],
  ["O=S1Nc2c(Cl)cc(Cl)c3c(Cl)cc(Cl)c(c23)N1", "NCI-H522 lung", "µM", 89.8],
  ["CCOC(=O)CC1(c2cccc3ccccc23)OC(=O)c2ccccc21 (stereo unspecified)", "NCI-H522 lung", "µM", 79.8]
]}

query: Give reported TGI value for CCN(CC)CCCC(C)N=C(C1=C(C(=NC(C)CCCN(CC)CC)c2cccc(OC)c2)C(=O)NC1=O)c1cccc(OC)c1 (stereo unspecified)
result: 2.03

query: Please report the measured TGI for `Cc1c2c(OCCN3CCCCC3)nn(C)c(=O)c2c(C)n1-c1ccccc1`
result: 84.1
